Answer each item with its documented percent viability.
- System: MCF10A
- experiment: percent viability (nuclei count relative to siNT); higher = more viable cells
- condition.details: 20 nM; 72 h
Express your answer in %, writing the number without its unit.

The measured percent viability that CCGCUUUCUGAGCUGGAC [hsa-miR-4315] showed for MCF10A is 25.2

The measured percent viability that GUGCGGAACGCUGGCCGGGGCG [hsa-miR-6850-5p] showed for MCF10A is 45.3

The measured percent viability that CACGCUCAUGCACACACCCACA [hsa-miR-574-3p] showed for MCF10A is 82.7

The measured percent viability that CUGGAGUCUAGGAUUCCA [hsa-miR-4309] showed for MCF10A is 33.2

The measured percent viability that GGGGGGAUGUGCAUGCUGGUU [hsa-miR-4525] showed for MCF10A is 26.2

The measured percent viability that UGCCGCCCUCUCGCUGCUCUAG [hsa-miR-4632-3p] showed for MCF10A is 64.2

The measured percent viability that AGAAAGGGUGGCAAUACCUCUU [hsa-miR-5681a] showed for MCF10A is 8.23

The measured percent viability that CUGGGUUGGGCUGGGCUGGG [hsa-miR-4507] showed for MCF10A is 28.4

The measured percent viability that AGGAGAAGUAAAGUAGAA [hsa-miR-4434] showed for MCF10A is 74.7

The measured percent viability that AGGGGUGUGGAAAGAGGCAGAACA [hsa-miR-6747-5p] showed for MCF10A is 40

The measured percent viability that UGAGGGAGUGGAUUGUAUG [hsa-miR-6130] showed for MCF10A is 16.7

The measured percent viability that CCUGACCCACCCCCUCCCGCAG [hsa-miR-4750-3p] showed for MCF10A is 95.7
